# target_entity: FGF-R1 intracellular kinase domain (Homo sapiens, UniProt P11362, C488A/C584S/L457V)
# Construct: starting from the endogenous methionine residue 456 to glutamate 766; made in house; host or cells: baculovirus expression system
# Sequence (P11362 456-766 L457V/C488A/C584S): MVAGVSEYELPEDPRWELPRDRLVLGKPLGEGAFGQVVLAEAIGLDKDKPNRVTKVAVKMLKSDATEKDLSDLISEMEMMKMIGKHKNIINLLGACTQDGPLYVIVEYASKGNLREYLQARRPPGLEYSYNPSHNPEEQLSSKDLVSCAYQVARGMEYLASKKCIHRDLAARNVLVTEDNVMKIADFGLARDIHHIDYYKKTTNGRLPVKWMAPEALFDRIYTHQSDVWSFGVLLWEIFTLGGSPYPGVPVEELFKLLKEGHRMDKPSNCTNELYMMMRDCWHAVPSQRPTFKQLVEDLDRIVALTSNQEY
# method_notes: FGF-R spectrophotometric assay;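 further: coupled PK/LDH enzyme assay: ADP from kinase phosphoryl transfer drives NADH oxidation, read as absorbance decrease at 340 nm, with 2 mM ATP and poly(E4Y1) substrate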
# Type: biochemical
# condition_description: @ 1 μM; read-out: FGF-P percent inhibition
reported_endpoint: inhibition at 1 µM (%)
Give bare numbers, in %.

{"compound": "COc1ccc(Nc2cc(CCc3cccc(C(=O)Nc4cnc(N(C)C)c(C(F)(F)F)c4)c3)[nH]n2)cn1", "unit": "%", "reading": 74}
{"compound": "COc1ccc(Nc2cc(CCc3cccc(C(=O)Nc4ccc(N5CCNCC5)c(C(F)(F)F)c4)c3)[nH]n2)cn1", "unit": "%", "reading": 33}
{"compound": "Cc1cc(NC(=O)c2cccc(OCc3cncc4ccccc34)c2)ccc1C(C)C", "unit": "%", "reading": 79}
{"compound": "COc1ccc(Nc2cc(CCc3cccc(C(=O)Nc4ccc(N(C)C)c(C(F)(F)F)c4)c3)[nH]n2)cn1", "unit": "%", "reading": 68}
{"compound": "Cc1cc(NC(=O)c2cccc(C3CC3c3cc(Nc4ccccc4)n[nH]3)c2)ccc1C(C)C (stereo not shown)", "unit": "%", "reading": 83}
{"compound": "CNS(=O)(=O)c1ccc(Nc2cc(CCc3cccc(C(=O)Nc4ccc(C(C)C)c(C)c4)c3)[nH]n2)cc1", "unit": "%", "reading": 81}

With those in mind, consider the next compound.
q: inhibition at 1 µM for O=C(Nc1ccc(N2CCNCC2)c(C(F)(F)F)c1)c1ccc(F)c(OCc2cncc3ccccc23)c1 ?
a: 41

FYI, the data here is from patent US6635641B2.
